# target: MAP4K1 (HPK1) (Homo sapiens (Human), UniProt Q92918)
# Sequence (Q92918 whole entry): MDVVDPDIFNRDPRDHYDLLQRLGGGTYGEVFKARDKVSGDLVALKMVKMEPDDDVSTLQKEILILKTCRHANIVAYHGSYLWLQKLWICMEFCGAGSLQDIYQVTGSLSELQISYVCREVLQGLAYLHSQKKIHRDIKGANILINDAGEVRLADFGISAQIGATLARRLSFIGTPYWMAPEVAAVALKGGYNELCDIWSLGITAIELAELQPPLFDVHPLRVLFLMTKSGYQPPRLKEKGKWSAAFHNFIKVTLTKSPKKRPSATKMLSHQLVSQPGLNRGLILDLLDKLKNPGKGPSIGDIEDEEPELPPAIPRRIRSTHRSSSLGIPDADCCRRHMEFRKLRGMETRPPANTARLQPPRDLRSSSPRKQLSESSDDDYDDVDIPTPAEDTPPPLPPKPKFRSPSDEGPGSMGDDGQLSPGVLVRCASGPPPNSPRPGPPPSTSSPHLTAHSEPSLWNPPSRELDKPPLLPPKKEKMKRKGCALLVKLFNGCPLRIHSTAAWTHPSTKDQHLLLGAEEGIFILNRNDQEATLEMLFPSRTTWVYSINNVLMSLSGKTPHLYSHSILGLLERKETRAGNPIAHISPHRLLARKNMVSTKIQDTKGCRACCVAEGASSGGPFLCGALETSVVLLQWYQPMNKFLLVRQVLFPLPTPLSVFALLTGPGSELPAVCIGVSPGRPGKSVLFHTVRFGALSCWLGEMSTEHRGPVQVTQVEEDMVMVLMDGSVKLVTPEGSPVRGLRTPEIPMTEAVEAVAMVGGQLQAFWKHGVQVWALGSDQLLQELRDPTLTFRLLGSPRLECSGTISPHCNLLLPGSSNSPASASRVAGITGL
# experimental.details: MAP4K1 (HPK1) biochemical enzymatic activity, electrophoretic mobility shift (EZReader 2), ATP at APPKM (26 μM)
# settings: numeric value
# Excerpt: MAP4K1 (HPK1) and relevant off-target enzymatic activity was monitored using the Perkin Elmer electrophoretic mobility shift technology platform—the EZReader 2. […] Within the linear, steady-state phase of the kinase enzymatic reaction, the mixed pool of phosphorylated (product) and non-phosphorylated (substrate) peptides was passed through the microfluidic system of the PerkinElmer EZ Reader 2, under an applied electric potential difference. […]
quantity.name: IC50 (nM)

CC[C@@H](N)c1cnc(C)c2cnc(Nc3ccc4c(n3)[C@@H](C)[C@H](C)OC4=O)cc12 [Compound 202]
0.62

[P] C[C@@H]1OC(=O)c2ccc(Nc3cc4c(C(C)(C)N)cnc(O[C@H]5C[C@@H](F)C5)c4cn3)nc2[C@H]1C [Compound 163]
[Q] CC[C@H](C)n1nc(Nc2cc3c(C(C)(C)N)cnc(OC)c3cn2)ccc1=O [Compound 14]
[R] COc1ncc(C(C)(C)N)c2cc(Nc3ccc4c(n3)CC3(CC3)OC4=O)ncc12 [Compound 33]
Query: Order the 3 molecules from highest to lowest IC50. When ranking, write the labels in the order the request describes.
Reply: Q, P, R

###

# target: MAP4K1 (HPK1) (Homo sapiens (Human))
# experimental.details: MAP4K1 (HPK1) biochemical enzymatic activity, electrophoretic mobility shift (EZReader 2), ATP at APPKM (26 μM)
# settings: numeric value
pIC50: −log10 of the molar value.
quantity.name: pIC50

C[C@@H]1c2nc(Nc3cc4c([C@@](C)(N)C5CC5)cnc(OC5(C)CC5)c4cn3)ccc2C(=O)O[C@@H]1C
8.34
C[C@H]1OC(=O)c2ccc(Nc3cc4c(C(C)(C)N)cnc(OC5CC5)c4cn3)nc2C12CC2
9.92
CC[C@@H](N)c1cnc(OC)c2cnc(Nc3ccc4c(n3)[C@@H](C)[C@H](C)OC4=O)cc12
9.30
CC[C@H](C)c1nc(Nc2cc3c(C(C)(C)N)cnc(OC)c3cn2)cnc1C#N
9.14
CC1(C)COC(=O)c2ccc(Nc3cc4c([C@](C)(N)C5CC5)cnc(OC5CC5)c4cn3)nc21 (single isomer, unassigned)
9.66

[1] COc1ncc(C(C)(C)N)c2cc(Nc3cnc(C#N)c(C(C)(C)F)n3)ncc12
[2] CC(C)(N)c1cnc(OC2CC2)c2cnc(Nc3ccc4c(n3)C(C)(C)OC4=O)cc12
Query: Looking only at measured pIC50, which entry is lower, 1 or 2 ? Lab note: record the label of whichever item you select.
Reply: 1

###

Consider the following molecules and their measured IC50 readings.
# target: MAP4K1 (HPK1) (Homo sapiens (Human))
# experimental.details: MAP4K1 (HPK1) biochemical enzymatic activity, electrophoretic mobility shift (EZReader 2), ATP at APPKM (26 μM)
# settings: class designation

Query: Request the reported IC50 associated with CC[C@@](C)(N)c1cnc(OCC(F)(F)F)c2cnc(Nc3ccc4c(n3)C(C)(C)OC4=O)cc12 (single isomer, unassigned)
Reply: > 10 nM

Query: I am curious: what IC50 value has been reported for COc1ccc(C(C)(C)N)c2cc(Nc3ccc4c(n3)CC(C)(C)OC4=O)ncc12 ?
Reply: < 0.3 nM

Query: // query IC50 value for entry CC[C@@](C)(N)c1cnc(OC)c2cnc(Nc3ccc4c(n3)CC(C)(C)OC4=O)cc12 (single isomer, unassigned)
Reply: < 0.3 nM

Query: So what's the measured IC50 for this one? COc1ncc(C(C)(C)N)c2cc(Nc3ccc4c(n3)C[C@@H](C)OC4=O)ncc12 (single isomer, unassigned)
Reply: 0.31 to 1 nM

Query: Tell me the measured IC50 of CC1(C)Cc2nc(Nc3cc4c([C@@](C)(N)C5CCC5)cnc(OC5CC5)c4cn3)ccc2C(=O)O1 , please.
Reply: 1.1 to 10 nM

Query: If you can, please state the reported IC50 value of COC[C@@](C)(N)c1cnc(OC2CC2)c2cnc(Nc3ccc4c(n3)[C@@H](C)C(C)(C)OC4=O)cc12 .
Reply: < 0.3 nM

Query: So what does the record say about IC50 for COc1ncc(C(C)(C)N)c2cc(Nc3ccc4c(n3)CC3(CC3)OC4=O)ncc12 ?
Reply: < 0.3 nM

Reference source: patent US11534441B2
